- Method Description: Microsomal metabolic stability assay
- Assay type: in vitro ADME
- Conditions Used: pH 7.4; rat liver microsomes, 0.5 mg/mL protein, 1 μM compound; read-out: Rat LM Clint
- Method: Microsomal Metabolic Stability Assay Microsomes were pre-incubated with test compound or control compounds for 5 min at 37° C. in 100 mM potassium phosphate buffer, pH 7.4, 1.0 mM EDTA. […] 50 μL of supernatant are taken into 96-well assay plates pre-added with 50 μL ultrapure water, and then analyzed by LC/MS/MS. Concentrations of test articles, control compounds in the samples were determined by using LC/MS/MS method. […]
Quantity: microsomal CLint at 1 μM (µL/min/mg)

Examples with their reported microsomal CLint at 1 μM follow.
[2H]C([2H])([2H])NC(=O)c1cnc(Nc2ccc(F)cn2)cc1Nc1cn(C)c2ccn(CC)c(=O)c12    181
[2H]C([2H])([2H])NC(=O)c1cnc2cc1Nc1cc(cc(-c3ncn(C)n3)c1OC)COCc1cc(C(F)(F)F)cc(n1)N2    3.32
[2H]C([2H])([2H])NC(=O)c1nnc2cc1Nc1cc(cc(-c3ncn(C)n3)c1OC)CN(C)Cc1nc(ccc1F)N2    87
CCn1ccc2c(c(Nc3cc(Nc4ncc(F)cc4F)ncc3C(=O)NC)cn2C)c1=O    114

I: [2H]C([2H])([2H])NC(=O)c1cnc(NC(=O)C2CC2)cc1Nc1cn(C)c2ccn(CC)c(=O)c12
II: [2H]C([2H])([2H])NC(=O)c1cnc(Nc2ccncn2)cc1Nc1cc(F)c2cnn(CC)c2c1OC
Request: Hi! Which is lower in terms of microsomal CLint at 1 μM, the first one I or the second one II ? Selection: enter the item's label.
Result: I

I: [2H]C([2H])([2H])NC(=O)c1cnc(NC(=O)C2CC2)cc1Nc1csc2c(Cl)cn(C)c(=O)c12
II: [2H]C([2H])([2H])NC(=O)c1cnc(Nc2cccc(C#N)n2)nc1Nc1cccc(-c2ncn(C)n2)c1OC
III: [2H]C([2H])([2H])NC(=O)c1cnc(Nc2ccn(C)n2)cc1Nc1ncc2cnn(CC)c2c1OC
Request: Number of compounds to sort: 3. Sort criterion: microsomal CLint at 1 μM, ascending. # output: labels, in the requested order
Result: II, III, I

I: COC(=O)c1cnc(NC(=O)C2CC2)cc1Nc1ncn2ccn(CC(F)(F)F)c(=O)c12
II: [2H]C([2H])([2H])NC(=O)c1cnc(Nc2ccn(C)n2)cc1Nc1ccc2cnn(C([2H])([2H])[2H])c2c1OC
III: [2H]C([2H])([2H])NC(=O)c1cnc(NC(=O)C2CC2)cc1Nc1csc2cnn(C(C)C)c(=O)c12
Request: Kindly order the items shown according to microsomal CLint at 1 μM, from the highest value down. # output: labels, in the requested order
Result: I, II, III

a: [2H]C([2H])([2H])NC(=O)c1cnc(Nc2cccc(F)n2)cc1Nc1cn(C)c2c(Cl)cn(CC)c(=O)c12
b: [2H]C([2H])([2H])NC(=O)c1cnc2cc1Nc1cc(cc(-c3ncn(C)n3)c1OC)COCc1nc(ccc1C)N2
Request: Hi! Which is lower in terms of microsomal CLint at 1 μM, the first one a or the second one b ? Selection: enter the item's label.
Result: b

I: [2H]C([2H])([2H])NC(=O)c1cnc(Nc2ccc(F)cn2)cc1Nc1ccc2cnn(C([2H])([2H])[2H])c2c1OC
II: [2H]C([2H])([2H])NC(=O)c1cnc(Nc2cc(F)c(F)cn2)cc1Nc1cn(C)c2c(F)cn(C)c(=O)c12
III: [2H]C([2H])([2H])NC(=O)c1cnc(NC(=O)C2CC2)cc1Nc1cn(C)c2c(F)cn(CC(F)F)c(=O)c12
Request: Kindly order the items shown according to microsomal CLint at 1 μM, from the highest value down. # output: labels, in the requested order
Result: II, I, III
(II: 115 µL/min/mg, I: 46.8 µL/min/mg, III: 26.4 µL/min/mg)

I: [2H]C([2H])([2H])NC(=O)c1cnc(NC(=O)C2CC2)cc1Nc1cn(CCOC)c2ccn(CC)c(=O)c12
II: CNC(=O)c1cnc(NC(=O)C2CC2)cc1Nc1nn(C)c2ccn(CC(F)(F)F)c(=O)c12
III: [2H]C([2H])([2H])NC(=O)c1cnc(Nc2ccncn2)cc1Nc1ccc2cnn(C([2H])([2H])[2H])c2c1OC
Request: Kindly order the items shown according to microsomal CLint at 1 μM, from the highest value down. # output: labels, in the requested order
Result: III, I, II
